Test: Pharmacokinetics in rats after oral administration
Assay type: in vivo, SD rat
Settings: Sprague-Dawley, rat, serum, po, 20 mg/kg, oral 20 mg/kg, SD rat; individual rats No. 1-3; read-out: Tmax
reportedProperty: Tmax (h)
Give just the number in h; leave the unit off.

Given the molecule Cc1cc(OC(C)C)cc(C)c1-c1csc(NC(=O)c2ccncc2)n1 [Compound 82] , write its reported Tmax.
4

###

Field: pIC50. Provide a value for each of the compounds that follow.
Tested on: Hela
Test: Antiproliferative activity (MTS assay), Hela
Format: cell-based
Settings: Homo sapiens, HeLa, 96 h, Hela cells
Would you please state pIC50, meaning minus log10 of the concentration in mol/L, as a bare number?

Given the compound COc1cc(C)c(-c2csc(NC(=O)c3cncs3)n2)c(C)c1 [Compound 75] , write its reported pIC50.
5.53

Given the compound COc1ccc(Oc2cc(C)c(-c3csc(NC(=O)c4ccncc4)n3)c(Cl)c2)cc1 [Compound 131] , write its reported pIC50.
7.22

Given the compound COCCCOc1cc(C)c(-c2csc(NC(=O)c3ccncc3)n2)c(C)c1 [Compound 110] , write its reported pIC50.
6.96

Given the compound Cc1cc(Cc2ccccc2)cc(C)c1-c1csc(NC(=O)c2ccncc2)n1 [Compound 118] , write its reported pIC50.
6.57

Given the compound Cc1ccc(Sc2cc(C)c(-c3csc(NC(=O)c4ccncc4)n3)c(C)c2)cc1 [Compound 116] , write its reported pIC50.
6.82

Given the compound COc1ccc(Oc2cc(C)c(-c3csc(NC(=O)c4cc[n+]([O-])cc4)n3)c(C)c2)cc1 [Compound 120] , write its reported pIC50.
6.80

Given the compound CC(=O)Nc1cc(C)c(-c2csc(NC(=O)c3ccncc3)n2)c(C)c1 [Compound 74] , write its reported pIC50.
5.80
